Assay: Solubility in ultrapure water
Format: physicochemical
Conditions: read-out: Solubility in ultrapure water (good solubility at concentrations not exceeding the value)
Ends that are not written are not given here.
Observable: solubility

Ask: Which solubility value is on record for FCLYELAR [FCLYELAR, Phe-Cys-Leu-Tyr-Glu-Leu-Ala-Arg] ?
Result: ≥ 5000 µg/mL

----------
Biological target: ACE (E.C. 3.4.15.1) derived from rabbit lungs (Oryctolagus cuniculus, UniProt P12822)
Construct: ACE (E.C. 3.4.15.1) derived from rabbit lungs; purchased Sigma Chemical Co. (St. Louis, MO, USA); host or cells: rabbit lung tissue
Sequence (P12822 34-1310): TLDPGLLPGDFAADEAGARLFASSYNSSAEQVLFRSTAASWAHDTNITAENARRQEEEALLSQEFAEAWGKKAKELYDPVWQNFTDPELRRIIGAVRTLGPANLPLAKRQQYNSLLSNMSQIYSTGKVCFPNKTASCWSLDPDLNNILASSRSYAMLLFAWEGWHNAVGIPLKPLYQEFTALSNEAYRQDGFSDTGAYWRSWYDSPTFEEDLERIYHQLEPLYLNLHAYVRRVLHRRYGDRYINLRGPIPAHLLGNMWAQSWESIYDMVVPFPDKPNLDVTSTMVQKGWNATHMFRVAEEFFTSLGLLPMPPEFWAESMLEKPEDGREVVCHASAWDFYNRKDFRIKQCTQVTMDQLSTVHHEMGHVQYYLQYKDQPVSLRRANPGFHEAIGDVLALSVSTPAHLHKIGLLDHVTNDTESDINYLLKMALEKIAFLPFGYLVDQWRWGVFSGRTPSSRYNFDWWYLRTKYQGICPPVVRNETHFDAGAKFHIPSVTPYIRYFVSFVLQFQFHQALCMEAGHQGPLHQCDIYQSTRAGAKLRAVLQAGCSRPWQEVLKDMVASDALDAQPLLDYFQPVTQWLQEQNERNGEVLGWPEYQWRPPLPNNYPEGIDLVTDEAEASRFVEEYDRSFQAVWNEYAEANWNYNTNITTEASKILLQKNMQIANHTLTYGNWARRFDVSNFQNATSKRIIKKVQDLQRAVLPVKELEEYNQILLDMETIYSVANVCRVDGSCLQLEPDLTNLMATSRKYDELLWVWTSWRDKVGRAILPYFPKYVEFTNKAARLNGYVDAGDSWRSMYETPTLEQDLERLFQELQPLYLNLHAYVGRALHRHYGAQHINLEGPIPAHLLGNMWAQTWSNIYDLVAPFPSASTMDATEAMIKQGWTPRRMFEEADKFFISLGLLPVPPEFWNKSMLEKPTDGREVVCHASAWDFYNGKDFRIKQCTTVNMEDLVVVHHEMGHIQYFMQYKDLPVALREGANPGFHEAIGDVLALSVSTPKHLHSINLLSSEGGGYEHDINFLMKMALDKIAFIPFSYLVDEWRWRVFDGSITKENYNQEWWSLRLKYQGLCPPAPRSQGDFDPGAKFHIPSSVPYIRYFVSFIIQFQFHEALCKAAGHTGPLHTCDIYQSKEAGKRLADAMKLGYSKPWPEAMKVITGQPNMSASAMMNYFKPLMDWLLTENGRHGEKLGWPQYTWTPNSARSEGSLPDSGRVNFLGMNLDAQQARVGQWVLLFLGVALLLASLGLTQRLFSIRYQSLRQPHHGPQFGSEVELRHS
Assay: ACE-inhibitory activity assay (HHL substrate, TNBS)
Assay type: biochemical
Details: synthetic peptide, purity at least 95%; 5 mM HHL, pH 8.3, 37°C, 1 h, 420 nm
Ends that are not written are not given here.
Observable: IC50 (µM)
All answers are understood in µM, so give the number only.

Ask: Lab request: please report IC50 under test system ACE (E.C. 3.4.15.1) derived from rabbit lungs (Oryctolagus cuniculus, UniProt P12822) for FCLYELAR [FCLYELAR, Phe-Cys-Leu-Tyr-Glu-Leu-Ala-Arg]
Result: 31.6
